compounds and their reported RFU
target-system: UniProtKB P08183
assay-protocol: Inhibition of human MDR1 expressed in mouse L5178Y cells assessed as rhodamine 123 accumulation at 20 ug/ml preincubated for 10 mins before rhodamine 123 challenge measured after 20 mins by flow cytometry relative to wild type
Type: cell-based
Enter the number alone.

Worked examples, 2 compounds total:
| compound | RFU |
| --- | --- |
| O=C(c1cc2ccccc2o1)N1N=C(c2ccc(F)cc2)CC1c1ccccc1 (configuration not stated) | 15.82 |
| COc1ccc(C2CC(c3ccccc3)=NN2C(=O)c2cc3ccccc3o2)cc1 (configuration not stated) | 26.77 |

Tell me its RFU given O=C(c1cc2ccccc2o1)N1N=C(c2ccc(F)cc2)CC1c1ccc(F)cc1 (configuration not stated) as the entry.
14.56

// Input: O=C(c1cc2ccccc2o1)N1N=C(c2ccc(Cl)cc2)CC1c1ccccc1 (configuration not stated) . Output its RFU only.
6.77

---

Let's look at some compounds and their measured RFU.
target-system: ATP-dependent translocase ABCB1 (Homo sapiens)
Sequence (P08183 whole entry): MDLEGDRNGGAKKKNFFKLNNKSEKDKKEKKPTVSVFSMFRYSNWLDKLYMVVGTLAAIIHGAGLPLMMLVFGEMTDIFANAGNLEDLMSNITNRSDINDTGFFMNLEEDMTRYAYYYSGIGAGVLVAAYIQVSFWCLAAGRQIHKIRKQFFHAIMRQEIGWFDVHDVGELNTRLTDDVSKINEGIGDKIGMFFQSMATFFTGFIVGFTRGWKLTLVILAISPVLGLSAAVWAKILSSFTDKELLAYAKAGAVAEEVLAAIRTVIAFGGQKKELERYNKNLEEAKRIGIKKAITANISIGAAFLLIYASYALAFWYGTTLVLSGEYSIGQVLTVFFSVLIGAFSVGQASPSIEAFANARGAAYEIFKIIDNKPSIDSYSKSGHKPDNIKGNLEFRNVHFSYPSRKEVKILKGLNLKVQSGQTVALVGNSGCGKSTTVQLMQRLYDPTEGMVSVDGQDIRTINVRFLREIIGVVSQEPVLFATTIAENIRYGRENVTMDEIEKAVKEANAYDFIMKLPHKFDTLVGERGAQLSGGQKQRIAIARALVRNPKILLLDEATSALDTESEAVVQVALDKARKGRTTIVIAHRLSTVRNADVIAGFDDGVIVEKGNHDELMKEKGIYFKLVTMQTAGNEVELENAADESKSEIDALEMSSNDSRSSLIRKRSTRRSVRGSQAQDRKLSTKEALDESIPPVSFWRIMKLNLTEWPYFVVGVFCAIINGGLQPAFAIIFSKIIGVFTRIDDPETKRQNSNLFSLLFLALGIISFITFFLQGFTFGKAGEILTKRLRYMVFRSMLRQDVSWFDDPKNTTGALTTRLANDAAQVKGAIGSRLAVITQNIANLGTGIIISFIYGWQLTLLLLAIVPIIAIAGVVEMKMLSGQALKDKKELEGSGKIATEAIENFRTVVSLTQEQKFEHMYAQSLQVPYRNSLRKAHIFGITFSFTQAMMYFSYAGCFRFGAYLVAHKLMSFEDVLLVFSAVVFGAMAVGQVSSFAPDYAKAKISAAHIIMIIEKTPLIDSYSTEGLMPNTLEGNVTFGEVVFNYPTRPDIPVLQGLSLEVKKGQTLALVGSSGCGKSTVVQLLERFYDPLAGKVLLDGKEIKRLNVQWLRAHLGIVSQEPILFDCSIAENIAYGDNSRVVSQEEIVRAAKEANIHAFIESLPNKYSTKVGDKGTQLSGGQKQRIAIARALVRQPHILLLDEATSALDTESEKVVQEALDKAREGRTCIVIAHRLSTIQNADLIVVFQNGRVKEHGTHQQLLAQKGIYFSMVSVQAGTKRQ
assay-protocol: Inhibition of human MDR1 expressed in mouse L5178Y cells assessed as rhodamine 123 accumulation at 20 ug/ml preincubated for 10 mins before rhodamine 123 challenge measured after 20 mins by flow cytometry relative to wild type
Assay type: cell-based
// keep it numeric: no unit symbol after the value

Below: 3 compounds and their reported RFU.
| compound | RFU |
| --- | --- |
| O=C(c1cc2ccccc2o1)N1N=C(c2ccc(Cl)cc2)CC1c1ccccc1Cl (stereo not drawn) | 6.02 |
| O=C(c1cc2ccccc2o1)N1N=C(c2ccc(Cl)cc2)CC1c1ccc(Cl)cc1 (stereo not drawn) | 2.9 |
| Cc1ccc(C2CC(c3ccccc3)=NN2C(=O)c2cc3ccccc3o2)cc1 (stereo not drawn) | 7.59 |

Identify measured RFU corresponding to O=C(c1cc2ccccc2o1)N1N=C(c2ccc(F)cc2)CC1c1ccc(Cl)cc1 (stereo not drawn)
6.96

Return RFU (reported value) for this compound: COc1ccc(C2CC(c3ccc(F)cc3)=NN2C(=O)c2cc3ccccc3o2)cc1 (stereo not drawn)
8.72

Given COc1ccc(C2CC(c3ccc(Cl)cc3)=NN2C(=O)c2cc3ccccc3o2)cc1 (stereo not drawn) , respond with its RFU.
5.85

// fetch RFU given entry Cc1ccc(C2CC(c3ccc(F)cc3)=NN2C(=O)c2cc3ccccc3o2)cc1 (stereo not drawn)
10.52

Answer with reported RFU of O=C(c1cc2ccccc2o1)N1N=C(c2ccc(F)cc2)CC1c1ccc([N+](=O)[O-])cc1 (stereo not drawn)
12.58

Check the records and state RFU for O=C(c1cc2ccccc2o1)N1N=C(c2ccccc2)CC1c1ccc([N+](=O)[O-])cc1 (stereo not drawn)
15.18

Please list RFU recorded for the compound O=C(c1cc2ccccc2o1)N1N=C(c2ccc(Cl)cc2)CC1c1ccc([N+](=O)[O-])cc1 (stereo not drawn)
12.61

Note down RFU recorded for COc1ccc(C2CC(c3ccc(Cl)cc3)=NN2C(=O)c2cc3ccccc3o2)cc1OC (stereo not drawn)
5.87

Complete the entry with RFU for O=C(c1cc2ccccc2o1)N1N=C(c2ccccc2)CC1c1ccc(Cl)cc1 (stereo not drawn)
8.34

Give the measured RFU for COc1ccc(C2CC(c3ccccc3)=NN2C(=O)c2cc3ccccc3o2)cc1OC (stereo not drawn)
29.9

Dear colleague, please send me the reported RFU for COc1ccc(C2CC(c3ccc(F)cc3)=NN2C(=O)c2cc3ccccc3o2)cc1OC (stereo not drawn) when you can.
16.22

Input O=C(c1cc2ccccc2o1)N1N=C(c2ccc(F)cc2)CC1c1ccccc1Cl (stereo not drawn) , output reported RFU.
16.94

Specify reported RFU for the compound shown: O=C(c1cc2ccccc2o1)N1N=C(c2ccccc2)CC1c1ccccc1 (stereo not drawn)
18.8

Check the records and state RFU for O=C(c1cc2ccccc2o1)N1N=C(c2ccccc2)CC1c1ccc(F)cc1 (stereo not drawn)
20.06

Supply recorded RFU for O=C(c1cc2ccccc2o1)N1N=C(c2ccccc2)CC1c1ccccc1Cl (stereo not drawn) here.
16.1
